I'd be grateful if you could share measured % Inhibition for these entries.
Test system: rat platelet-rich plasma (ADP-induced platelet aggregation)
EXPERIMENT_SUMMARY: Anti-platelet aggregation activity in vitro (Born's method), rat platelet-rich plasma, ADP-induced
Type: cell-based
TEST_PARAMETERS: ADP 5 μmol/l; dose 1 V/ml (Table II)
Method: Preparations (A), (B), (C), (D), (E) and (F) were administered "in vivo" orally and/or parenterally in 0.5% carboxymethylcellulose suspensions in physiological saline at neutral pH. […] Platelet-rich plasma was obtained by centrifugation for 10 minutes at 2,000 rpm of 9 parts rat blood to 1 part 3.13% sodium citrate solution. […] After inducement with ADP, aggregation was measured continuously with an Elvi 840 Aggregometer (Elvi Logos-Milan) to follow its course. […]
Answer format: numeric, % implied, no suffix.

Record Cc1ccc(C(=O)c2ccc(CC(=O)NCC(=O)OCCn3cnc4c3c(=O)n(C)c(=O)n4C)n2C)cc1 [(E)] , field % Inhibition: 29

So for Cc1cc(CC(=O)OCCn2cnc3c2c(=O)n(C)c(=O)n3C)n(C)c1C(=O)c1ccc(Cl)cc1 , the logged % Inhibition turned out to be 25

Entry under test: Cn1c(=O)c2c(ncn2CCCOC(=O)Cc2ccc(-n3cccc3)cc2)n(C)c1=O . Its % Inhibition was 24

Reported % Inhibition ( Cc1ccc(C(=O)c2ccc(CC(=O)OC(Cn3cnc4c3c(=O)n(C)c(=O)n4C)Cn3cnc4c3c(=O)n(C)c(=O)n4C)n2C)cc1 ) = 23

// Cc1ccc(C(=O)c2ccc(CC(=O)OCCn3cnc4c3c(=O)n(C)c(=O)n4C)n2C)cc1 : % Inhibition value = 30

response.value for CC(=O)Oc1ccccc1C(=O)O [aspirin, reference compound] (field: % Inhibition) = 19
